biological target: recombinant KEAP1-Kelch domain (Homo sapiens, UniProt Q14145); test: biochemical; assay type: binding
Sequence (Q14145 312-624): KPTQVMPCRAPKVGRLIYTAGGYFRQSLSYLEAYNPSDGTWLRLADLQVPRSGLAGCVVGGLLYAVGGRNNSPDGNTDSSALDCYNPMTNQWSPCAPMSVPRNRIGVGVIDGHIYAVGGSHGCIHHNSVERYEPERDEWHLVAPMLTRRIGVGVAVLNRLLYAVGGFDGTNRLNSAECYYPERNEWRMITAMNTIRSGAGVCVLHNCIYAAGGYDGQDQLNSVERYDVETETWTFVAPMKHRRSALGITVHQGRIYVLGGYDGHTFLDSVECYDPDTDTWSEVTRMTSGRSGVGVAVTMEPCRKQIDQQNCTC
Rule: IC50 below 100 nM gives 1 (yes). Equal to or above 100 nM gives 0 (no).

# COMPOUND, CLASSIFICATION
rows = [
    ("Cc1ccc(C(CC(=O)O)c2cc(OCCCNc3cccc4c3C(=O)N(C3CCC(=O)NC3=O)C4=O)c3c(c2)nnn3C)cc1CN1C[C@@H](C)Oc2ccccc2S1(=O)=O (some centres unmarked) [Compound 4]", "0 (no)"),
]

Q: Determine if Cc1ccc(C(CC(=O)O)c2cc(OCCCNC(=O)COc3cccc4c3C(=O)N(C3CCC(=O)NC3=O)C4=O)c3c(c2)nnn3C)cc1CN1C[C@@H](C)Oc2ccccc2S1(=O)=O (some centres unmarked) [Compound 7] shows IC50 strictly lower than 100 nM.
Result: 0 (no)

Q: Determine if Cc1ccc(C(CC(=O)O)c2cc(OCCCCCCCNc3cccc4c3C(=O)N(C3CCC(=O)NC3=O)C4=O)c3c(c2)nnn3C)cc1CN1C[C@@H](C)Oc2ccccc2S1(=O)=O (some centres unmarked) [Compound 14] shows IC50 strictly lower than 100 nM.
Result: 1 (yes)

Q: Determine if Cc1ccc(C(CC(=O)O)c2cc(OCCNC(=O)COc3cccc4c3C(=O)N(C3CCC(=O)NC3=O)C4=O)c3c(c2)nnn3C)cc1CN1C[C@@H](C)Oc2ccccc2S1(=O)=O (some centres unmarked) [Compound 6] shows IC50 strictly lower than 100 nM.
Result: 0 (no)

Q: Determine if Cc1ccc(C(CC(=O)O)c2cc(OCCCCCNC(=O)COc3cccc4c3C(=O)N(C3CCC(=O)NC3=O)C4=O)c3c(c2)nnn3C)cc1CN1C[C@@H](C)Oc2ccccc2S1(=O)=O (some centres unmarked) [Compound 9] shows IC50 strictly lower than 100 nM.
Result: 1 (yes)
